- Target System: human TLR9 (Homo sapiens)
- Sequence (Q9NR96 26-1032): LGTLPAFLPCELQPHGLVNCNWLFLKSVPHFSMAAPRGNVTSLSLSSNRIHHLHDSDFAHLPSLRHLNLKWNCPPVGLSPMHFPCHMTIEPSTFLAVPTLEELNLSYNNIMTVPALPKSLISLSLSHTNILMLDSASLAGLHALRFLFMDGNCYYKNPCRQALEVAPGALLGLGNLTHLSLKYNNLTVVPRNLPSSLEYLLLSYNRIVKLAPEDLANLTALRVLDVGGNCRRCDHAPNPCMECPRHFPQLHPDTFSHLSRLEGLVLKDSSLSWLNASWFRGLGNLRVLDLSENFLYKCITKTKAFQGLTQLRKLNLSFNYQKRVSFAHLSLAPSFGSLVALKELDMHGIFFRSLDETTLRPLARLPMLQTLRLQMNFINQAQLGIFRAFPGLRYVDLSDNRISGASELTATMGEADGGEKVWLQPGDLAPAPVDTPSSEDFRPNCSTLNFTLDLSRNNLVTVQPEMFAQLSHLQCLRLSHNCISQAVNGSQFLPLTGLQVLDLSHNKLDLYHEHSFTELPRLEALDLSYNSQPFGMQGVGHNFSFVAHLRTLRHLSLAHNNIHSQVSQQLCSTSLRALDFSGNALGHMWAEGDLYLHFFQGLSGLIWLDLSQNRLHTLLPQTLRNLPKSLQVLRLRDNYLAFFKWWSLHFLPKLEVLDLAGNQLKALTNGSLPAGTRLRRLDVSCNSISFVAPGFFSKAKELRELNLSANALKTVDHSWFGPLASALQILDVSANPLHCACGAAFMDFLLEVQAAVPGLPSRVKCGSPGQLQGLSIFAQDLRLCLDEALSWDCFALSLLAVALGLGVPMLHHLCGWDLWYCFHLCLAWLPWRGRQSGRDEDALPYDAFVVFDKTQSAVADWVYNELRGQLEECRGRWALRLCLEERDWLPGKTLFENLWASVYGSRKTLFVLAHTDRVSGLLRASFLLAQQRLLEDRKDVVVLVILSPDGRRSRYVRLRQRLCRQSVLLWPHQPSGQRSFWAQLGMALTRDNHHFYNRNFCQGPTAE
- Procedure Text: TLR9 inhibition reporter assay (HEK-Blue SEAP)
- Condition Info: HEK-Blue cells overexpressing human TLR9, ODN2006 5 nM, 22 hour incubation
Strictly below 8 µM in IC50: t. Otherwise: f.

Record COc1cc(-c2cc3[nH]c(=O)n(C4CCN(C5CCOCC5)CC4)c3cc2C(C)C)cn2ncnc12 : is its IC50 strictly below 8 µM? f

Field entry: Cc1cc2c(cc1-c1cc(C)c3ncnn3c1)[nH]c(=O)n2C1CCN(CC(=O)N(C)C)CC1 [Example 91] f

Now this one: COc1cc(-c2cc3[nH]c(=O)n([C@H]4CC[C@@H](N(C)C(C)C)CC4)c3cc2C)cn2ncnc12 t

Continue with Cc1cc2c(cc1-c1cc(C)c3ncnn3c1)[nH]c(=O)n2[C@H]1CC[C@@H](NC2CCOCC2)CC1 t

And for COc1cc(-c2ccc3c(c2)[nH]c(=O)n3C2CCNCC2)cn2ncnc12 ? t

// repeat for Cc1cc2c(cc1-c1cc(C)c3ncnn3c1)[nH]c(=O)n2[C@@H]1CCCN(C2CCOCC2)C1 and report f

Would you mind doing COCCN1CCC[C@@H](n2c(=O)[nH]c3cc(-c4cc(OC)c5ncnn5c4)c(C)cc32)C1 as well? t
